Test: CyQUANT LDH Cytotoxicity Assay
Type: cell-based
Conditions: human, Jurkat T lymphoblasts (Clone E6-1); concentrations up to 50 μM, 24, 48 and 72 h; read-out: cell viability
readout: viability

What value of viability has been reported for the following molecule? CC(=O)OCC1OC(OC(C)=O)C(NC(=O)c2c(F)c(F)c(N=[N+]=[N-])c(F)c2F)C(OC(C)=O)C1OC(C)=O (stereo not shown) > 80%
